These measurements were taken from PubChem BioAssay AID504834.

Measurement protocol: Primary qHTS for delayed death inhibitors of the malarial parasite plastid, 96 hour incubation
Study conditions: P. falciparum luciferase reporter growth; series mostly up to 28.7 µM
Screen size: about 320,000 compounds; about 22,000 (6.9%) were called active. Not shown: some 27% with an inconclusive outcome. Calls come from the whole dose curve; as a rule, active = well fitted inhibition curve with a large enough effect; inconclusive = small, poorly fitted or top-dose-only effect, or another doubt; inactive = no such curve, though single readings can be large or run the other way. The full list was thinned out, with actives kept by preference.
Lab note: assign the record to one of true (active), false (inactive)

The examples below pair each entry with its known result.
Compound: O=C(NNS(=O)(=O)c1ccccc1C(F)(F)F)c1cc2ncc(C(F)(F)F)cc2s1
Assigned class: false
//
Compound: O=C(Nc1cccc(Br)c1)c1ccc2snnc2c1
Assigned class: false
//
Compound: C=CCNC(=O)c1ccc2c3n(nc2c1)-c1ccc(C)cc1CO3
Assigned class: false
//
Compound: NC(=O)NC(CC(=O)NNC(=O)c1ccccn1)c1ccc(Cl)cc1 (stereo unspecified)
Assigned class: false
//
Compound: O=C(O)c1ccc(NS(=O)(=O)c2ccc3c(c2)C(=O)c2cc(S(=O)(=O)Nc4ccc(C(=O)O)cc4)ccc2-3)cc1
Assigned class: true

Which outcome was entered for the compound `Cc1cc(-c2csc(N)n2)c(C)n1Cc1ccccc1` in this test? false

Look up the recorded call for Cc1nn(-c2ccccn2)c2c1C(c1ccncc1)C1=C(CC(C)(C)CC1=O)N2 (stereo unspecified) in this test. true

Hi, sorry to bother you, what did the test record for `CCOc1ccc(C(=O)Nc2cccc(SC)c2)cc1` ? false

GET /call?item= COc1cccc(N(C(=O)c2snc(C(N)=O)c2N)C(C(=O)NCC2CCCO2)c2c[nH]c3ccccc23)c1 (stereo unspecified) returns the recorded outcome of this test. false

How was `CCOc1c(Nc2cccc(Cl)c2)c(=O)c1=O` classified in this test? true

Just curious, what result did `CC(=O)Nc1ccc(C(=O)Nc2nc(-c3cc(C)n(Cc4ccccc4)c3C)cs2)cc1` get here? true
